Assay system: particulate guanylyl cyclase receptor A (pGC-A) (Homo sapiens, UniProt P16066)
Construct: expressed in transfected cells; host or cells: HEK293
Sequence (P16066 33-1061): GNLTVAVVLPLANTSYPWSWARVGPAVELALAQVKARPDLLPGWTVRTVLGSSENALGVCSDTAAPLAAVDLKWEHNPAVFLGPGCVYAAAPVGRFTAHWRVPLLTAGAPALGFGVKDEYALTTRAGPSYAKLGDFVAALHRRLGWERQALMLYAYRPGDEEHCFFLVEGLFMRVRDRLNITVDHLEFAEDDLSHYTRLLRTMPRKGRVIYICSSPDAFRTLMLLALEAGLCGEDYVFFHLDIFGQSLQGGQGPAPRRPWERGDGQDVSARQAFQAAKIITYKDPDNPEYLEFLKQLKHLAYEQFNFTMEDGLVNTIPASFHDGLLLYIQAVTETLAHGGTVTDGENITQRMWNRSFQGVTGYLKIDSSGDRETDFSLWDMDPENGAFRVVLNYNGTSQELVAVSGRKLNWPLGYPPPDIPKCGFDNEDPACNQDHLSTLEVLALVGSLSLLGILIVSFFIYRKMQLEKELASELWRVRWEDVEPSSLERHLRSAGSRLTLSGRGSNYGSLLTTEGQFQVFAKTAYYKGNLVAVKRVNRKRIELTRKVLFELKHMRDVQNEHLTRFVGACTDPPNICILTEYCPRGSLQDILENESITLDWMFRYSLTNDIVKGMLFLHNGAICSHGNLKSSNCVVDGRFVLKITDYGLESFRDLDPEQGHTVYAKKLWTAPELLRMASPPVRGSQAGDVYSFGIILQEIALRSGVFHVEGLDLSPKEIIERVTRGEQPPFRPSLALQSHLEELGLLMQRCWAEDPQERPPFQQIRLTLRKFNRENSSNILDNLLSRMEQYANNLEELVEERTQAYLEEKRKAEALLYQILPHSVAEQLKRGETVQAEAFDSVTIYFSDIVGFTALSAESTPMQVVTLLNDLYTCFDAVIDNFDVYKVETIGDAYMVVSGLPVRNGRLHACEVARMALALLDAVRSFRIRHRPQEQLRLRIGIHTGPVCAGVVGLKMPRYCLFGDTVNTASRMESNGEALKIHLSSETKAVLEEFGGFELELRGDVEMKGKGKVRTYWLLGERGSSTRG
Sequence (P01160 124-151 partner limits assumed): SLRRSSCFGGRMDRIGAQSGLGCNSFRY
Assay protocol: cGMP production by HTRF in HEK293 cells overexpressing pGC-A, with ANP
Format: cell-based
Experimental conditions: HEK293 cells overexpressing pGC-A; test compound plus EC20 concentration of ANP; cGMP by HTRF
Measurement type: EC50

> print(dat)
                                   compound  obs.value
1  CN(C)CCN1CCCC(C(=O)Nc2nc3c(F)cc(F)cc3c(=O)[nH]2)C1 (centres unmarked)     > 5 µM

[in] Given the entry O=C(Nc1nc2c(F)cc(F)cc2s1)c1cccc(Cl)c1 , report its measured EC50.
[out] > 10 µM

[in] Given the entry CN(C)CCN1CCCC(C(=O)Nc2ncc(-c3ccccc3)s2)C1 (centres unmarked) , report its measured EC50.
[out] > 5 µM
